- Tested on: Staphylococcus aureus
- measurement notes: Antibacterial activity against Staphylococcus aureus assessed as zone of inhibition at 100 ug/ml
- Type: functional
- details: read-out: IZ
As shown below, each of these molecules has a reported zone of inhibition at 100 µg/mL value.
Write it as a number; the unit mm goes unstated.

Look at this molecule and give its reported zone of inhibition at 100 µg/mL. Cc1ccc2c(c1)oc(=O)c1c(-c3cn(-c4ccccc4)nc3-c3ccccc3)cc(-c3c(O)ccc(Cl)c3O)nc12 19

* * *

- Tested on: Escherichia coli
- measurement notes: Antibacterial activity against Escherichia coli assessed as zone of inhibition
- Assay type: functional
As shown below, each of these molecules has a reported inhibition zone (IZ) value.
Write it as a number; the unit mm goes unstated.

Look at this molecule and give its reported inhibition zone (IZ). N#CC1=C(N)Oc2c(c(=O)oc3ccccc23)C1c1ccc(Br)cc1 (centres undefined) 20

Look at this molecule and give its reported inhibition zone (IZ). NC1NC=NC2=C1C(c1ccc(Br)cc1)c1c(c3ccccc3oc1=O)O2 (centres undefined) 21

Look at this molecule and give its reported inhibition zone (IZ). O=c1[nH]cnc2c1C(c1ccc(Br)cc1)c1c(c3ccccc3oc1=O)O2 (centres undefined) 13

Look at this molecule and give its reported inhibition zone (IZ). CC1(C)S[C@@H]2[C@H](NC(=O)[C@H](N)c3ccc(O)cc3)C(=O)N2[C@H]1C(=O)O 36

* * *

- Tested on: Staphylococcus aureus
- measurement notes: Antibacterial activity against Staphylococcus aureus assessed as zone of inhibition at 100 ug/ml
- Type: functional
- details: read-out: IZ
Note to self: values exactly at 10 mm are 1.0. So zone of inhibition at 100 µg/mL at or above 10 mm is 1.0, below is 0.0.

CC1(C)S[C@@H]2[C@H](NC(=O)Cc3ccccc3)C(=O)N2[C@H]1C(=O)O | 1.0
Cc1ccc2c(c1)oc(=O)c1c(-c3cn(-c4ccccc4)nc3-c3ccccc3)cc(-c3c(O)cc(C)c(Cl)c3Cl)nc12 | 0.0
Cc1ccc2c(c1)oc(=O)c1c(-c3cn(-c4ccccc4)nc3-c3ccccc3)cc(-c3c(O)c(Cl)c(O)c(Cl)c3Cl)nc12 | 1.0

Please tell me: is the molecule Cc1ccc2c(c1)oc(=O)c1c(-c3cn(-c4ccccc4)nc3-c3ccccc3)cc(-c3ccc(Cl)cc3Cl)nc12 at or over 10 mm in terms of zone of inhibition at 100 µg/mL? 1.0

Please tell me: is the molecule Cc1ccc2c(c1)oc(=O)c1c(-c3cn(-c4ccccc4)nc3-c3ccccc3)cc(-c3c(O)ccc(Cl)c3Cl)nc12 at or over 10 mm in terms of zone of inhibition at 100 µg/mL? 0.0

Please tell me: is the molecule Cc1ccc2c(c1)oc(=O)c1c(-c3cn(-c4ccccc4)nc3-c3ccccc3)cc(-c3c(O)c(I)cc(Cl)c3Cl)nc12 at or over 10 mm in terms of zone of inhibition at 100 µg/mL? 1.0

* * *

As shown below, each of these molecules has a reported zone of inhibition at 20000 µg/mL value.
- System: Staphylococcus aureus
- measurement notes: Antibacterial activity against Staphylococcus aureus assessed as zone of inhibition at 20 mg/ml
- Assay type: functional
- details: read-out: IZ
Write it as a number; the unit mm goes unstated.

These recorded examples may help you get a feel for the data.
CCOC(=O)c1sc2c(c1NC(=O)CNc1ccc(S(N)(=O)=O)cc1)c(=O)oc1ccccc12 | 9
CCOC(=O)c1sc2c(c1N)c(=O)oc1ccccc12 | 9
CCOC(=O)c1sc2c(c1NC(=O)CNc1ccc(S(=O)(=O)NN=N)cc1)c(=O)oc1ccccc12 | 10
CCOC(=O)c1sc2c(c1NC(=O)CN1CCOCC1)c(=O)oc1ccccc12 | 0
O=C(N[C@H](CO)[C@H](O)c1ccc([N+](=O)[O-])cc1)C(Cl)Cl | 18

Look at this molecule and give its reported zone of inhibition at 20000 µg/mL. Cc1cccc2c1oc(=O)c1cn[nH]c12 14

Look at this molecule and give its reported zone of inhibition at 20000 µg/mL. NNC(=O)c1sc2c(c1N)c(=O)oc1ccccc12 10

Look at this molecule and give its reported zone of inhibition at 20000 µg/mL. Cc1ccc2c(c1)oc(=O)c1c(-c3cn(-c4ccccc4)nc3-c3ccccc3)cc(-c3c(O)c(Cl)c(O)c(Cl)c3Cl)nc12 22

Look at this molecule and give its reported zone of inhibition at 20000 µg/mL. CCOC(=O)c1sc2c(c1NC(=O)CNc1ccccc1)c(=O)oc1ccccc12 0

Look at this molecule and give its reported zone of inhibition at 20000 µg/mL. CCOC(=O)c1sc2c(c1NC(=O)CCl)c(=O)oc1ccccc12 8

Look at this molecule and give its reported zone of inhibition at 20000 µg/mL. CCOC(=O)c1sc2c(c1NC(=O)CNc1ccc(C)cc1)c(=O)oc1ccccc12 0

* * *

- Test system: Pseudomonas aeruginosa
- measurement notes: Antibacterial activity against Pseudomonas aeruginosa assessed as zone of inhibition at 20 mg/ml
- Type: functional
- details: read-out: IZ
As shown below, each of these compounds has a reported zone of inhibition at 20000 µg/mL value.
Write it as a number; the unit mm goes unstated.

These recorded examples may help you get a feel for the data.
CCOC(=O)c1sc2c(c1NC(=O)CNc1ccc(S(N)(=O)=O)cc1)c(=O)oc1ccccc12 | 0
O=C(N[C@H](CO)[C@H](O)c1ccc([N+](=O)[O-])cc1)C(Cl)Cl [CHLORAMPHENICOL] | 18
CCOC(=O)c1sc2c(c1NC(=O)CN1CCOCC1)c(=O)oc1ccccc12 | 9
CCOC(=O)c1sc2c(c1NC(=O)CNc1ccc(S(=O)(=O)NN=N)cc1)c(=O)oc1ccccc12 | 9
CCOC(=O)c1sc2c(c1NC(=O)CNc1ccc(C)cc1)c(=O)oc1ccccc12 | 0
CCOC(=O)c1sc2c(c1N)c(=O)oc1ccccc12 | 10
NNC(=O)c1sc2c(c1N)c(=O)oc1ccccc12 | 10
CCOC(=O)c1sc2c(c1NC(=O)CCl)c(=O)oc1ccccc12 | 0

Shifting focus to the compound that follows.
# get_value(readout= zone of inhibition at 20000 µg/mL, system= Pseudomonas aeruginosa) for CCOC(=O)c1sc2c(c1NC(=O)CNc1ccccc1)c(=O)oc1ccccc12 0

* * *

- target or test system: Dopamine receptors; D2 & D4 (Homo sapiens, UniProt P14416+P21917)
- measurement notes: Binding affinity to human D2/D4 receptor assessed as inhibition constant
- Format: protein assay
Response field label takes Condition met when Ki is strictly below 100 nM and Condition not met in all other cases.

COc1ccc(CN2CCc3c(c(=O)oc4cc(OC)ccc34)C2)cc1 | Condition met

Bench note: check whether COc1ccc2c3c(c(=O)oc2c1)CN(Cc1ccc(Cl)cc1)CC3 shows Ki below 100 nM Condition not met

Bench note: check whether COc1ccc2c3c(c(=O)oc2c1)CN(Cc1ccc(Cl)c(Cl)c1)CC3 shows Ki below 100 nM Condition met

Bench note: check whether COc1ccc2c3c(c(=O)oc2c1)CN(CCc1ccccc1)CC3 shows Ki below 100 nM Condition not met

Bench note: check whether COc1ccc2c3c(c(=O)oc2c1)CN(Cc1ccncc1)CC3 shows Ki below 100 nM Condition met

* * *

- Tested on: Aspergillus flavus
- measurement notes: Antifungal activity against Aspergillus flavus assessed as zone of inhibition at 20 mg/ml
- Type: functional
- details: read-out: IZ
attribute measured: zone of inhibition at 20000 µg/mL (mm)
Write it as a number; the unit mm goes unstated.

These recorded examples may help you get a feel for the data.
CCOC(=O)c1sc2c(c1NC(=O)CN1CCOCC1)c(=O)oc1ccccc12 | 0
CCOC(=O)c1sc2c(c1NC(=O)CNc1ccc(S(N)(=O)=O)cc1)c(=O)oc1ccccc12 | 0
CCOC(=O)c1sc2c(c1N)c(=O)oc1ccccc12 | 0
CCOC(=O)c1sc2c(c1NC(=O)CCl)c(=O)oc1ccccc12 | 0
NNC(=O)c1sc2c(c1N)c(=O)oc1ccccc12 | 10

Look at this molecule and give its reported zone of inhibition at 20000 µg/mL. CCOC(=O)c1sc2c(c1NC(=O)CNc1ccc(C)cc1)c(=O)oc1ccccc12 0

Look at this molecule and give its reported zone of inhibition at 20000 µg/mL. CCOC(=O)c1sc2c(c1NC(=O)CNc1ccccc1)c(=O)oc1ccccc12 12

Look at this molecule and give its reported zone of inhibition at 20000 µg/mL. O=C(N[C@H](CO)[C@H](O)c1ccc([N+](=O)[O-])cc1)C(Cl)Cl [CHLORAMPHENICOL] 44

Look at this molecule and give its reported zone of inhibition at 20000 µg/mL. CCOC(=O)c1sc2c(c1NC(=O)CNc1ccc(S(=O)(=O)NN=N)cc1)c(=O)oc1ccccc12 0

* * *

As shown below, each of these compounds has a reported inhibition zone (IZ) value.
- System: Pseudomonas aeruginosa
- measurement notes: Antibacterial activity against Pseudomonas aeruginosa assessed as zone of inhibition
- Type: functional

These recorded examples may help you get a feel for the data.
N#CC1=C(N)Oc2c(c(=O)oc3ccccc23)C1c1ccc(Br)cc1 (centres undefined) | 10 mm
O=c1[nH]cnc2c1C(c1ccc(Br)cc1)c1c(c3ccccc3oc1=O)O2 (centres undefined) | 10 mm
CC1(C)S[C@@H]2[C@H](NC(=O)[C@H](N)c3ccc(O)cc3)C(=O)N2[C@H]1C(=O)O [AMOXICILLIN] | 11 mm

Look at this compound and give its reported inhibition zone (IZ). NC1NC=NC2=C1C(c1ccc(Br)cc1)c1c(c3ccccc3oc1=O)O2 (centres undefined) 18 mm

Reference source: ChEMBL document CHEMBL5230136
